Target: PTPH1 (Homo sapiens, UniProt P26045)
Sequence (P26045 646-901 limits assumed): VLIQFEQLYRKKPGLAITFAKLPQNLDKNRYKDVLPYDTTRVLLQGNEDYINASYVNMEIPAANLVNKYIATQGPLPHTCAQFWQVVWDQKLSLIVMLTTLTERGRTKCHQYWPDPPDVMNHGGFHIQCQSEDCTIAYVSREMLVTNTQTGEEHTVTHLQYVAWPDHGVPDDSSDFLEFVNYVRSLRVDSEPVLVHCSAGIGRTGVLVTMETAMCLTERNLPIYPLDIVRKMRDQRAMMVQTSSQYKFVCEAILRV
pIC50: −log10 of the molar value.
OBSERVED PROPERTY: pIC50

If you can, please state the reported pIC50 value of `CC[C@@H](C)C[C@@H](C)/C=C(C)/C=C/C=C/C=C(\C)C(=O)c1c(O)c(-c2ccc(O)cc2)cn(O)c1=O` .
< 4.00

###

Below is a list of entries, each paired with its recorded IC50 value.
Biological target: full-length Shp2 (Shp2 FL) (Homo sapiens, UniProt Q06124)
Sequence (Q06124 1-593): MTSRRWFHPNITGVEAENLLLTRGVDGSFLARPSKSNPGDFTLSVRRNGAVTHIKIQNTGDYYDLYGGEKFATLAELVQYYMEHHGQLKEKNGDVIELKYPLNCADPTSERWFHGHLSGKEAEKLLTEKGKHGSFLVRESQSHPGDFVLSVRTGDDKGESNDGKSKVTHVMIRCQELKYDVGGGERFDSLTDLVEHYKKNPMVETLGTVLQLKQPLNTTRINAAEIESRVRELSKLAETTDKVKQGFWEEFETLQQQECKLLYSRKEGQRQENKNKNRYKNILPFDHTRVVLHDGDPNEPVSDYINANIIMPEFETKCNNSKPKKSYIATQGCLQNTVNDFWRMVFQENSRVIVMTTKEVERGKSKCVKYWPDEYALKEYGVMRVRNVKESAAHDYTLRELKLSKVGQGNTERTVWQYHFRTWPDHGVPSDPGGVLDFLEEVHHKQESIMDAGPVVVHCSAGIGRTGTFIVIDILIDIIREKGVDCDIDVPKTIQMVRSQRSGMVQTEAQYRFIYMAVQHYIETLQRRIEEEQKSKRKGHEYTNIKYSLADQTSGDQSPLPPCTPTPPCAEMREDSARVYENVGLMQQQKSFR
The reply should contain only the number, in µM.

[[record]]
compound = "[Na+].[Na+].[Na+].[O]=[V]([O-])([O-])[O-] [sodium orthovanadate, reference compound]"
result_unit = "µM"
numeric_readout = 630


Could you now look at the following compound, please?
If you can, please state the reported IC50 value of `CC[C@@H](C)C[C@@H](C)/C=C(C)/C=C/C=C/C=C(\C)C(=O)c1c(O)c(-c2ccc(O)cc2)cn(O)c1=O` .
26.5

###

Target: Shp2-WT (Homo sapiens)
Sequence (Q06124 1-593): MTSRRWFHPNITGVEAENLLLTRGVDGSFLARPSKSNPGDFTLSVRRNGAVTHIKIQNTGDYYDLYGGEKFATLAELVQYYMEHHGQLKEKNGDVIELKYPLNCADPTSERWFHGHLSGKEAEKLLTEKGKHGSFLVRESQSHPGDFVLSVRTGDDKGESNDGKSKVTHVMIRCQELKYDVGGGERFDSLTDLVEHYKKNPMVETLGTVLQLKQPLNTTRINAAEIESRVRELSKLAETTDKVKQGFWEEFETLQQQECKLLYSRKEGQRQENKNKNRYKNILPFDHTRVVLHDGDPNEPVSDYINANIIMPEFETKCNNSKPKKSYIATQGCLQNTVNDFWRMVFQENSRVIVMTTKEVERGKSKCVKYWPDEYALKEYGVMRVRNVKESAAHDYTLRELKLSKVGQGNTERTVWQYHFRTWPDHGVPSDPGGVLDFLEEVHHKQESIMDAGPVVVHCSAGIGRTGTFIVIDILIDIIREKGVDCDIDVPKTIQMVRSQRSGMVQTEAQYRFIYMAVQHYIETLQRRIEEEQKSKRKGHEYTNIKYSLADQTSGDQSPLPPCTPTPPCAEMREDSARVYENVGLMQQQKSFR
OBSERVED PROPERTY: pKd
// returns pKd (minus log10 of molar concentration), number only

Observed pKd on Shp2-WT (Homo sapiens) for CC[C@@H](C)C[C@@H](C)/C=C(C)/C=C/C=C/C=C(\C)C(=O)c1c(O)c(-c2ccc(O)cc2)cn(O)c1=O [Fumos, Fumosorinone] , please.
7.40

###

Biological target: STEP (Homo sapiens)
Sequence (P54829 300-555 limits assumed): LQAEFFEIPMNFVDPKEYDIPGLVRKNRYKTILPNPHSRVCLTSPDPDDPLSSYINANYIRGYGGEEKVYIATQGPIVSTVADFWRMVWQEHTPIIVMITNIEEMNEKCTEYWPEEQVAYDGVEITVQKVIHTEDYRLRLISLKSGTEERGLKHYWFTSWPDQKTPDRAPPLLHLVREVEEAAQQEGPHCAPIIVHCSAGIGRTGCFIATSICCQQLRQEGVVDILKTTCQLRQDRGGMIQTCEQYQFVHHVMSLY
Test: biochemical
Conditions: STEP PTP domain
From the text: Plasmids for expression of His-tag fusion proteins of human PTP were constructed in PET-28a by PCR subcloning techniques. The constructions contain only the PTP domain except Full-length Shp2. Full-length Shp2 containing Tyr279-to-Ala mutant was generated by PCR-based mutagenesis. All constructs were verified by DNA sequencing. […]
OBSERVED PROPERTY: IC50

If you can, please state the reported IC50 value of CC[C@@H](C)C[C@@H](C)/C=C(C)/C=C/C=C/C=C(\C)C(=O)c1c(O)c(-c2ccc(O)cc2)cn(O)c1=O [Fumos, Fumosorinone] .
> 100 µM

Values were extracted from paper PMC4667271.
